- assay_overview: qHTS of pediatric cancer cell lines to identify multiple opportunities for drug repurposing: Primary screen for LAN-5 cells (AID 1347100)
- experimental_setup: LAN-5 neuroblastoma viability, CellTiter-Glo luminescence, 48 h; series mostly up to 46 µM
Results filed as inconclusive are left out. Activity calls are given as the source filed them. The call rests on the fitted dose curve; in most records, active means well fitted cell-killing curve with a large enough effect; inconclusive means small, poorly fitted or top-dose-only effect; inactive means no such curve, though single readings can be large or run the other way.
Choose the fitting class; nothing outside active, inactive is accepted.

Record excerpt, results attached:
[
  {
    "molecule": "C[N+]1(CC2COC(c3ccccc3)(C3CCCCC3)O2)CCCCC1 (stereo not drawn)",
    "assigned_category": "inactive"
  },
  {
    "molecule": "C=C[C@H]1CN2CC[C@H]1C[C@H]2[C@H](O)c1ccnc2ccc(OC)cc12",
    "assigned_category": "inactive"
  },
  {
    "molecule": "NC(=O)C1(N2CCCCC2)CCN(CCCC(=O)c2ccc(F)cc2)CC1",
    "assigned_category": "inactive"
  },
  {
    "molecule": "CCOC(=O)c1ccc(N)cc1",
    "assigned_category": "inactive"
  },
  {
    "molecule": "COc1ccc2c(c1)c1c3n2CCN(C)C3=NCC1",
    "assigned_category": "inactive"
  }
]

In: GET /call?item= "CN1CCc2cccc3c2[C@H]1Cc1ccc(O)c(O)c1-3" returns the recorded outcome of this test.
Out: active

In: Field entry: "CCOC(=O)C(C#N)=C(c1ccccc1)c1ccccc1"
Out: inactive

In: Please answer likewise for "CCN1CCN(C(=O)N[C@@H](C(=O)N[C@@H]2C(=O)N3C(C(=O)O)=C(CSc4nnnn4C)CS[C@H]23)c2ccc(O)cc2)C(=O)C1=O"
Out: inactive

In: Repeat for the following molecule: "Cc1ccc(-c2ncc(Cl)cc2-c2ccc(S(C)(=O)=O)cc2)cn1"
Out: inactive

In: And for Cc1cc(C)cc(OCC2CNC(=O)O2)c1 (stereo not drawn) ?
Out: inactive

In: Please give the result for "CC(=O)Oc1ccc(C)cc1" too.
Out: inactive

In: Lookup CC1(COc2ccc(CC3SC(=O)NC3=O)cc2)CCCCC1 (stereo not drawn)
Out: inactive

In: For "Nc1ccc(S(=O)(=O)Nc2cnc3ccccc3n2)cc1" then?
Out: inactive

---

Listed next: entries and their corresponding viability change, negative = cytotoxic.
- assay_overview: Cell Viability - SH-SY5Y (AID 544);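 further: cells exposed to compound for 40 hours; 0% = DMSO alone and -100% = 100 µM tamoxifen; nearly all actives have a fitted effect of over 55% in size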
- experimental_setup: SH-SY5Y neuroblastoma cell viability; at 92.2 µM (top of the series)
Records with an inconclusive call do not appear.
Use % as the unit, but write only the number.

[
  {
    "compound": "C=C[C@H]1CN2CC[C@H]1C[C@@H]2[C@@H](O)c1ccnc2ccc(OC)cc12",
    "unit_abbrev": "%",
    "observed_measurement": -25.7
  },
  {
    "compound": "CCOc1ccc(NC(C)=O)cc1",
    "unit_abbrev": "%",
    "observed_measurement": -11.1
  },
  {
    "compound": "CCCCC(CC)COC(=O)c1ccc(N(C)C)cc1 (configuration not stated)",
    "unit_abbrev": "%",
    "observed_measurement": 0.409
  }
]

Kindly consider the entry below.
In: I'd like to know its viability change, negative = cytotoxic. The compound in question is "C/C=C/c1ccc(O)c(OC)c1"
Out: 1.26

---

- System: Hek293T
- assay_overview: Primary qHTS to identify gynecologic anti-cancer compounds using libraries of approved drugs and bioactive compounds (AID 1345084); further: on the % scale 0 is the no-effect control and ±100 the full control effect; nearly all actives have a fitted effect of over 55% in size
- experimental_setup: Gynecologic cancer cell panel viability, ATPlite luminescence, 48 h, control line for the selectivity index; series mostly up to 57.5 µM
Records with an inconclusive call do not appear. Activity calls are given as the source filed them. Calls come from the whole dose curve; as a rule, active = well fitted cell-killing curve with a large enough effect; inconclusive = small, poorly fitted or top-dose-only effect, or effect the other way; inactive = flat fitted curve, though single readings scatter.
Hi there, use one of these labels in your reply, thanks! active, inactive

Before answering, review these 3 worked examples.
[
  {
    "compound": "CN1CCN(C2=Nc3ccccc3Sc3ccc(Cl)cc32)CC1",
    "system_tested": "Hek293T",
    "assigned_category": "inactive"
  },
  {
    "compound": "CCN(CC)CCNC(=O)COc1ccc(OC)cc1",
    "system_tested": "Hek293T",
    "assigned_category": "inactive"
  },
  {
    "compound": "CCCCCCCCOc1ccc(C(=O)c2ccccc2)c(O)c1",
    "system_tested": "Hek293T",
    "assigned_category": "inactive"
  }
]

In: Which result was noted for this compound in the test: CCN(CC)CCOC(=O)C(Cc1cccc2ccccc12)CC1CCCO1 (configuration not stated)
Out: inactive

In: Check "O=c1[nH]c(=O)n([C@H]2C[C@H](O)[C@@H](CO)O2)cc1F" too.
Out: inactive

In: Also need "CC(=O)Oc1ccc(C)cc1" , thanks.
Out: inactive

In: Again, but for CCC1NC(=O)c2cc(S(N)(=O)=O)c(Cl)cc2N1 (configuration not stated)
Out: inactive

---

- assay_overview: qHTS of pediatric cancer cell lines to identify multiple opportunities for drug repurposing: Confirmatory screen for Rh18 cells (AID 1347125);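 further: cells exposed to compound for 48 h; nearly all actives have a fitted effect of over 55% in size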
- experimental_setup: Rh18 rhabdomyosarcoma cells, viability; series mostly up to 45.9 µM
Results filed as inconclusive are left out. Active and inactive are the calls of the source. The call rests on the fitted dose curve; in most records, active means well fitted cell-killing curve with a large enough effect; inconclusive means small, poorly fitted or top-dose-only effect, or effect the other way; inactive means flat fitted curve, though single readings scatter.
Hello, when you answer, please use one of the following outcomes: active, inactive

[
  {
    "smiles_string": "NC(N)=NN=C(/C=C/c1ccc([N+](=O)[O-])o1)/C=C/c1ccc([N+](=O)[O-])o1",
    "assigned_category": "active"
  },
  {
    "smiles_string": "O=[N+]([O-])c1ccc(/C=N\\O)o1",
    "assigned_category": "inactive"
  },
  {
    "smiles_string": "C[C@@]12C(=O)OC(=O)[C@]1(C)C1CCC2O1",
    "assigned_category": "active"
  }
]

In: Status in this test for "O=C(CCCN1CC=C(n2c(=O)[nH]c3ccccc32)CC1)c1ccc(F)cc1" ?
Out: inactive

---

- Tested on: DIV17
- assay_overview: qHTS profiling for inhibitors of Plasmodium falciparum proliferation (AID 504749); further: nearly all actives have a fitted effect of over 60% in size
- experimental_setup: P. falciparum in erythrocytes, SYBR Green DNA, 72 h; series mostly up to 28.7 µM
Results filed as inconclusive are left out. Activity calls are given as the source filed them. Calls follow the shape of the dose curve; as a rule, active = well fitted inhibition curve with a large enough effect; inconclusive = small, poorly fitted or top-dose-only effect; inactive = flat fitted curve, though single readings scatter.
Classes to choose from: label 1 for active, label 0 for inactive

[
  {
    "smiles_string": "Cc1ccc(S(=O)(=O)NC(=O)NC2CCCC2)cc1",
    "assigned_category": "label 0"
  },
  {
    "smiles_string": "O=C(O)CCC(=O)Nc1ccc(S(=O)(=O)Nc2nccs2)cc1",
    "assigned_category": "label 0"
  },
  {
    "smiles_string": "CC(=O)Oc1ccc(C)cc1",
    "assigned_category": "label 0"
  },
  {
    "smiles_string": "Nc1ccc(C(=O)NCC(=O)O)cc1",
    "assigned_category": "label 0"
  },
  {
    "smiles_string": "CC(C)Nc1cccnc1N1CCN(C(=O)c2cc3cc(NS(C)(=O)=O)ccc3[nH]2)CC1",
    "assigned_category": "label 1"
  }
]

In: For this compound, state the assay outcome: "O=C(O)P(=O)(O)O"
Out: label 0

In: Also check "CCN(CC)CCOc1ccccc1C(=O)CCc1ccccc1"
Out: label 1

In: Repeat for the following compound: "O=c1[nH]c(=O)n([C@H]2C[C@H](O)[C@@H](CO)O2)cc1F"
Out: label 0

In: Next compound: "COc1cc(N)c(Cl)cc1C(=O)NC1CCN(Cc2ccccc2)CC1"
Out: label 0

In: Also "NC(N)=NCc1cccc(I)c1" ?
Out: label 0

In: Try "COc1ccc(C(Cl)=C(c2ccc(OC)cc2)c2ccc(OC)cc2)cc1" next.
Out: label 0

In: What about this compound? "CCNC(=O)/C=C/c1cccc(Br)c1"
Out: label 0

In: Please give the result for "CCCCCCCCCCCCCCCC(=O)O" too.
Out: label 0

---

- assay_overview: qHTS of pediatric cancer cell lines to identify multiple opportunities for drug repurposing: Primary screen for NB1643 cells (AID 1347099); further: nearly all actives have a fitted effect of over 50% in size
- experimental_setup: NB1643 neuroblastoma viability, CellTiter-Glo luminescence, 48 h; series mostly up to 46 µM
Records with an inconclusive call do not appear. The source made the active and inactive calls. Calls come from the whole dose curve; as a rule, active = well fitted cell-killing curve with a large enough effect; inconclusive = small, poorly fitted or top-dose-only effect; inactive = no such curve, though single readings can be large or run the other way.
Write down the outcome that applies. Available outcomes: YES for active, NO for inactive

These solved cases illustrate the format of a correct answer.
[
  {
    "compound": "C#C[C@]1(O)CC[C@H]2[C@@H]3CCC4=Cc5oncc5C[C@]4(C)[C@H]3CC[C@@]21C",
    "assigned_category": "NO"
  },
  {
    "compound": "CC(=O)O[C@]1(C(C)=O)CC[C@H]2[C@@H]3C=C(Cl)C4=CC(=O)CC[C@]4(C)[C@H]3CC[C@@]21C",
    "assigned_category": "NO"
  },
  {
    "compound": "CCN(CC)CCNc1ccc(CO)c2sc3ccccc3c(=O)c12",
    "assigned_category": "YES"
  },
  {
    "compound": "O=C(Nc1ccccc1)OCC(CN1CCCCC1)OC(=O)Nc1ccccc1 (stereo not given)",
    "assigned_category": "NO"
  },
  {
    "compound": "OC[C@H]1O[C@@H](Oc2ccc(O)cc2)[C@H](O)[C@@H](O)[C@@H]1O",
    "assigned_category": "NO"
  }
]

In: Would you mind telling me which call this test gave "COc1cc(C)nc(-n2nc(C)cc2OC)n1" ?
Out: NO

In: Likewise for "C#C[C@]1(O)CC[C@H]2[C@@H]3[C@H](C)CC4=C(CCC(=O)C4)[C@H]3CC[C@@]21C" ?
Out: NO

In: # iterate: "CCOC(=O)[C@@](C)(N)Cc1ccc(O)c(O)c1"
Out: YES

In: Now this one: "Cc1cn([C@H]2C[C@H](F)[C@@H](CO)O2)c(=O)[nH]c1=O"
Out: NO

In: Repeat with OC1C(O)C(O)C(O)C(O)C1O (stereo not given)
Out: NO
